system: UniProt Q9H244
Sequence (Q9H244 whole entry): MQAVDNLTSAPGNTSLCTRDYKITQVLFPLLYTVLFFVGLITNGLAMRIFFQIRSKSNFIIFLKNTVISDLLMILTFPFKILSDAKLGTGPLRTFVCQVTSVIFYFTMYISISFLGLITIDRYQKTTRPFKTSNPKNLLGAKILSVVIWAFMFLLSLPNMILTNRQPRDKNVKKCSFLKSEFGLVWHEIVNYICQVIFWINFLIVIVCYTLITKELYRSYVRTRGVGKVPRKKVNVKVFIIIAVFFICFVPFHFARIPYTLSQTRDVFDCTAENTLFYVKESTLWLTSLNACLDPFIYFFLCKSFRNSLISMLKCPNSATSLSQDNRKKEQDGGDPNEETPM
protocol: Ability to displace [3H]2-MeS-ADP from human Purinergic receptor P2Y12
Type: tissue-based
Assignment: determine reported pIC50 for the given compounds.
Answers are plain numbers, as −log10 of the molar value.

{"cpd_smiles": "CS(=O)(=O)c1ccc2c(c1)SC1=NS(=O)(=O)C(C(=O)CS(=O)(=O)Nc3nc4ccc(S(C)(=O)=O)cc4s3)=C(O)N12", "measured_number": 5.96}
{"cpd_smiles": "O=C1/C(=C(\\O)CS(=O)(=O)Nc2nc3ccccc3s2)S(=O)(=O)N=C2Sc3ccccc3N12", "measured_number": 4.68}
{"cpd_smiles": "O=C1/C(=C(\\O)CS(=O)(=O)Nc2nc3ccc(F)cc3s2)S(=O)(=O)N=C2Sc3cc(F)ccc3N12", "measured_number": 4.43}
{"cpd_smiles": "CCOC(=O)c1ccc2c(c1)SC1=NS(=O)(=O)C(C(=O)CS(=O)(=O)Nc3nc4ccc(C(=O)OCC)cc4s3)=C(O)N12", "measured_number": 5.74}
{"cpd_smiles": "O=C1/C(=C(\\O)CS(=O)(=O)Nc2nc3ccc([N+](=O)[O-])cc3s2)S(=O)(=O)N=C2Sc3cc([N+](=O)[O-])ccc3N12", "measured_number": 4.46}

Provide pIC50 values for the following items, in order.
1. COc1cccc2c1N1C(O)=CS(=O)(=O)N=C1S2
2. O=C1/C(=C(\O)CS(=O)(=O)Nc2nc3ccc(Cl)cc3s2)S(=O)(=O)N=C2Sc3cc(Cl)ccc3N12

output:
1: 4.11; 2: 4.46

The origin of these recorded values is ChEMBL document CHEMBL1134134.
